biological target: UniProt L0EQS9; assay: fluorescence-based in vitro thallium; type: cell-based; conditions: HEK293
Readout: inhibition at 30000 µM (%)
Hi! Could you send only the number? It should be in %, unit omitted.

Recorded inhibition at 30000 µM (compound Cc1nnc(CNc2cc(N3CCN(S(=O)(=O)c4ccc(F)cc4)CC3)ccc2[N+](=O)[O-])s1 [Compound 9s] ): 61

Recorded inhibition at 30000 µM (compound O=[N+]([O-])c1ccc(N2CCN(S(=O)(=O)c3ccc(F)cc3)CC2)cc1NCc1cnco1 [Compound 9m] ): 99

Recorded inhibition at 30000 µM (compound O=[N+]([O-])c1ccc(N2CCN(S(=O)(=O)c3ccc(F)cc3)CC2)cc1F [Compound 8] ): 100

Recorded inhibition at 30000 µM (compound CC(Nc1cc(N2CCN(S(=O)(=O)c3ccc(F)cc3)CC2)ccc1[N+](=O)[O-])c1nccs1 (stereo not drawn) [Compound 9i] ): 107

Recorded inhibition at 30000 µM (compound Cc1ncc(CNc2cc(N3CCN(S(=O)(=O)c4ccc(F)cc4)CC3)ccc2[N+](=O)[O-])s1 [Compound 9j] ): 111

Recorded inhibition at 30000 µM (compound Cc1cnc(CNc2cc(N3CCN(S(=O)(=O)c4ccc(F)cc4)CC3)ccc2[N+](=O)[O-])o1 [Compound 9n] ): 100

Recorded inhibition at 30000 µM (compound Cc1nnc(CNc2cc(N3CCN(S(=O)(=O)c4ccc(F)cc4)CC3)ccc2[N+](=O)[O-])o1 [Compound 9g] ): 110

Recorded inhibition at 30000 µM (compound Cc1nc(CNc2cc(N3CCN(S(=O)(=O)c4ccc(F)cc4)CC3)ccc2[N+](=O)[O-])no1 [Compound 9q] ): 109

Recorded inhibition at 30000 µM (compound Cc1cc(CNc2cc(N3CCN(S(=O)(=O)c4ccc(F)cc4)CC3)ccc2[N+](=O)[O-])no1 [Compound 9f] ): 109

Recorded inhibition at 30000 µM (compound O=[N+]([O-])c1ccc(N2CCN(S(=O)(=O)c3ccc(F)cc3)CC2)cc1NCc1ncco1 [Compound 9k] ): 98

Recorded inhibition at 30000 µM (compound O=[N+]([O-])c1ccc(N2CCN(S(=O)(=O)c3ccc(F)cc3)CC2)cc1NCc1ccco1 [Compound 9a] ): 96

Recorded inhibition at 30000 µM (compound O=[N+]([O-])c1ccc(N2CCN(S(=O)(=O)c3ccc(F)cc3)CC2)cc1NCc1ccon1 [Compound 9r] ): 99

Recorded inhibition at 30000 µM (compound Cc1ncc(CNc2cc(N3CCN(S(=O)(=O)c4ccc(F)cc4)CC3)ccc2[N+](=O)[O-])o1 [Compound 9o] ): 106

Recorded inhibition at 30000 µM (compound O=[N+]([O-])c1ccc(N2CCN(S(=O)(=O)c3ccc(F)cc3)CC2)cc1NCc1ncon1 [Compound 9p] ): 109

Recorded inhibition at 30000 µM (compound O=[N+]([O-])c1ccc(N2CCN(S(=O)(=O)c3ccc(F)cc3)CC2)cc1NCc1nccs1 [Compound 9h] ): 97
